- assay_method_text: Half life in simulated intestinal fluid at 20 uM by LC-MS/MS analysis
- Format: ADME
property: half-life at 20 µM

>>> endpoint_result("CC(=O)N[C@H]1CCSC[C@@H](C(=O)N[C@@H](Cc2ccc(OCCN)cc2)C(=O)N[C@@H](Cc2c[nH]c3ccccc23)C(=O)N[C@@H](CCC(C)C)C(=O)N[C@@H](CCC(=O)O)C(=O)N[C@@H](CC(N)=O)C(=O)NCC(N)=O)NC(=O)[C@H](CCC(N)=O)NC(=O)[C@H](Cc2c[nH]c3ccccc23)NC(=O)[C@H]([C@@H](C)O)NC(=O)[C@H](CCC(N)=O)NC1=O")
"< 1 h"
>>> endpoint_result("CC(=O)N[C@H](C(=O)N[C@@H](CCC(N)=O)C(=O)N[C@H](C(=O)N[C@@H](Cc1c[nH]c2ccccc12)C(=O)N[C@@H](CCC(N)=O)C(=O)N[C@H](C(=O)N[C@@H](Cc1ccc(O)cc1)C(=O)N[C@@H](Cc1c[nH]c2ccccc12)C(=O)N(C)[C@@H](CCCNC(=N)N)C(=O)N[C@@H](CCC(=O)O)C(=O)N[C@@H](CC(N)=O)C(=O)NCC(N)=O)C(C)(C)S)[C@@H](C)O)C(C)(C)S")
"2 to 3 h"
>>> endpoint_result("CC(=O)N[C@H]1CCSC[C@@H](C(=O)N[C@@H](Cc2ccc(OCCN)cc2)C(=O)N[C@@H](Cc2ccc3ccccc3c2)C(=O)N[C@@](C)(CCCCN)C(=O)N[C@@H](CCCCNC(=O)CC(C)C)C(=O)N[C@@H](CC(N)=O)C(=O)NCC(N)=O)NC(=O)[C@H](CCC(N)=O)NC(=O)[C@H](Cc2c[nH]c3ccccc23)NC(=O)[C@H]([C@@H](C)O)NC(=O)[C@H](CCC(N)=O)NC1=O")
"> 6 h"
>>> endpoint_result("CC(=O)NCCCC[C@H](NC(=O)C1(NC(=O)[C@H](Cc2ccc3ccccc3c2)NC(=O)[C@H](Cc2ccc(C(N)=O)cc2)NC(=O)[C@@H](NC(=O)[C@H](CCC(N)=O)NC(=O)[C@H](Cc2c[nH]c3ccccc23)NC(=O)[C@@H](NC(=O)[C@H](CC(N)=O)NC(=O)[C@@H](NC(C)=O)C(C)(C)S)[C@@H](C)O)C(C)(C)S)CCOCC1)C(=O)N[C@@H](CC(N)=O)C(=O)N[C@@H](CC(N)=O)C(N)=O")
"> 6 h"
>>> endpoint_result("CC(=O)NCCCC[C@H](NC(=O)[C@](C)(CCCCN)NC(=O)[C@H](Cc1ccc2ccccc2c1)NC(=O)[C@H](Cc1ccc(OCCN)cc1)NC(=O)[C@@H](NC(=O)[C@H](CCC(N)=O)NC(=O)[C@H](Cc1c[nH]c2ccccc12)NC(=O)[C@@H](NC(=O)[C@H](CCC(N)=O)NC(=O)[C@@H](NC(C)=O)C(C)(C)S)[C@@H](C)O)C(C)(C)S)C(=O)N[C@@H](CC(N)=O)C(=O)N[C@@H](CC(N)=O)C(N)=O")
"> 6 h"

----------
- target: Interleukin-23 receptor (Homo sapiens)
- Sequence (Q5VWK5 whole entry): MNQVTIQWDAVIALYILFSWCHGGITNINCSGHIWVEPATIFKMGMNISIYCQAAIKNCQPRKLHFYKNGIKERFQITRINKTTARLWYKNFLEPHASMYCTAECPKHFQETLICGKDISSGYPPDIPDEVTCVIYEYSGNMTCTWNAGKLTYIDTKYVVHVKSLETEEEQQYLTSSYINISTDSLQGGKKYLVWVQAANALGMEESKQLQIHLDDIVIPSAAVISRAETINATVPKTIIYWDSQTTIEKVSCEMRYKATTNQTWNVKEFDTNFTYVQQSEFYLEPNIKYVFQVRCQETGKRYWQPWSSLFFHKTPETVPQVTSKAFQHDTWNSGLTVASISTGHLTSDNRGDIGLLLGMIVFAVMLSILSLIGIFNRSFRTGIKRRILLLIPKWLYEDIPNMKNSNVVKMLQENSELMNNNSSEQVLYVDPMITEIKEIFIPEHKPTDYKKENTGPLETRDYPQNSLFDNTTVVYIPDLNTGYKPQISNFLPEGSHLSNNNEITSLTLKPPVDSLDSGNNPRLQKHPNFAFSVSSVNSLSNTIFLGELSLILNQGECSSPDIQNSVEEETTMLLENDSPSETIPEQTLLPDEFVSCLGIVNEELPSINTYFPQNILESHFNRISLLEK
- assay_method_text: Inhibition of interleukin-23 binding to human interleukin-23 receptor incubated for 2 hrs by competitive binding ELISA
Below, each entry is listed with its recorded IC50.
property: IC50

>>> endpoint_result("CC(=O)N[C@@H](CS)C(=O)N[C@@H](C)C(=O)N[C@@H](CC(=O)O)C(=O)N[C@@H](Cc1c[nH]c2ccccc12)C(=O)N[C@H](C(=O)N[C@@H](CS)C(=O)N[C@@H](Cc1ccc(O)cc1)C(=O)N[C@H](CC(=O)N[C@@H](CCCN)C(=O)N[C@@H](CN)C(=O)N[C@@H](Cc1ccccc1)C(=O)NCC(=O)NCCOCC(=O)N[C@H](CCCCN)C(N)=O)Cc1c[nH]c2ccccc12)C(C)C")
"6000 nM"
>>> endpoint_result("CC(=O)N[C@@H](CS)C(=O)N[C@H](C(=O)N[C@@H](CC(=O)O)C(=O)N[C@@H](Cc1c[nH]c2ccccc12)C(=O)N[C@@H](CCCCN)C(=O)N[C@@H](CS)C(=O)N[C@@H](Cc1ccc(O)cc1)C(=O)N[C@@H](Cc1c[nH]c2ccccc12)C(=O)N[C@@H](Cc1cnc[nH]1)C(=O)N[C@H](C(=O)N[C@@H](Cc1ccccc1)C(=O)NCC(N)=O)[C@@H](C)O)[C@@H](C)O")
"100 to 1000 nM"
>>> endpoint_result("CC(=O)N[C@H]1CCSC[C@@H](C(=O)N[C@@H](Cc2ccc(OCCN)cc2)C(=O)N[C@@H](Cc2ccc3ccccc3c2)C(=O)N[C@@](C)(CCCCN)C(=O)N[C@@H](CCC(=O)O)C(=O)N[C@@H](CC(N)=O)C(=O)NCC(N)=O)NC(=O)[C@H](CCC(N)=O)NC(=O)[C@H](Cc2c[nH]c3ccccc23)NC(=O)[C@H]([C@@H](C)O)NC(=O)[C@H](CCC(N)=O)NC1=O")
"< 10 nM"
